Test system: CEM cells HIV-1 protection, formazan growth assay
Experiment: NCI AIDS Antiviral Assay
READOUT KIND: EC50

Some solved entries appear below for comparison.
MOLECULE	TARGET UNDER TEST	EC50
CCOP(=O)(C/C(=N/NC(C)(C)C)C(=O)Nc1nc2ccc(C)cc2s1)OCC	CEM cells HIV-1 protection, formazan growth assay	> 58.9 µM
Cc1ccc(-c2n[nH]c(Cc3nc(-c4ccc(C)cc4)n[nH]3)n2)cc1	CEM cells HIV-1 protection, formazan growth assay	> 200 µM
O=C(O)CCNC(=O)OCc1ccccc1	CEM cells HIV-1 protection, formazan growth assay	> 200 µM

Provide EC50 value for the following molecule: OCCN1CCN(CCCN2c3cc(Cl)ccc3Sc3ccsc32)CC1
> 316 µM

Name the recorded EC50 of the item Cc1cc(NS(=O)(=O)c2ccc(Nc3c4ccccc4nc4ccccc34)cc2)no1 in your answer.
> 200 µM

Supply measured EC50 of CC(O)c1ccc[n+](Cc2ccccc2)c1 (stereo unspecified) in your reply.
> 1000 µM

---

Tested on: CEM cells HIV-1 protection, formazan growth assay
Test: NCI AIDS Antiviral Assay
Settings: measured here: growth of uninfected CEM cells
pIC50: −log10 of the molar value.
Catalogue of pIC50 values

For orientation, consider the following solved cases.
COMPOUND	ASSAY RESULT
O=[N+]([O-])c1ccc(OP(=O)(O)OCC2OC(CP(=O)(O)O)C(O)C2O)cc1 (configuration not stated)	< 3.70
CC1CSc2nc3[nH]c(=S)[nH]c3c(=O)n2C1 (configuration not stated)	< 3.70
COc1cc(OC)c2nc(C)c(CCCl)c(Cl)c2c1	< 3.70
CC(=O)NC(CC(C)C(=O)O)(C(=O)O)C(=O)O (configuration not stated)	< 3.70
CCC(=O)N(O)C(C)(C)C	< 2.76

Report measured pIC50; entry is CC1C2CC(C(C3C(=O)C4CC3C(C)(C)C4C)C2=O)C1(C)C (configuration not stated)
< 3.36

Please report the measured pIC50 for COc1ccc(N[C@H](CS(=O)c2ccc(C)cc2)C(F)(F)F)cc1 (some centres not stated)
< 3.70

---

Below: a set of entries, each annotated with reported pIC50.
Tested on: CEM cells HIV-1 protection, formazan growth assay
Test: NCI AIDS Antiviral Assay
Settings: measured here: growth of uninfected CEM cells
pIC50: −log10 of the molar value.

Sample answers from the record:
MOLECULE	TARGET UNDER TEST	pIC50
Cc1ccc(C(=O)/C=C/c2ccc(N(C)C)cc2)cc1	CEM cells HIV-1 protection, formazan growth assay	< 5.12
c1ccc2sc(SN3CCOCC3)nc2c1	CEM cells HIV-1 protection, formazan growth assay	< 4.97
C[C@@H]([C@H]1CC[C@@]2(C)[C@@H]3CC[C@@H]4C(=CC3=CC[C@]12C)CC[C@H](N(C)C)C4(C)C)N(C)C	CEM cells HIV-1 protection, formazan growth assay	< 3.70

# ---- query molecule ----
Read off the recorded pIC50 for COc1ccc(NC(=O)/C(Cc2cc(=O)oc3cc(O)ccc23)=N\NC(C)(C)C)c(OC)c1
< 4.52

---

Consider the following molecules and their measured pIC50 readings.
Test system: CEM cells HIV-1 protection, formazan growth assay
Assay: NCI AIDS Antiviral Assay
Conditions: measured here: growth of uninfected CEM cells
pIC50: −log10 of the molar value.

Sample answers from the record:
MOLECULE	pIC50
CCOC(=S)NP(=O)(NC(=S)OCC)NC(=S)OCC	< 3.70
SCCSCCCSCCS	< 4.64
CCOC(=O)C1SC(=Nc2ccc(Cl)c(Cl)c2)N=C1C (stereo not given)	< 4.94

Give measured pIC50 for Nc1ccc2nc(-c3ccccn3)c(-c3ccccn3)nc2c1 (CEM cells HIV-1 protection, formazan growth assay).
< 3.70

Name the recorded pIC50 of COP(=O)(OC)C(=O)c1ccccc1 , assay system CEM cells HIV-1 protection, formazan growth assay.
< 2.94

Return reported pIC50 for target or system CEM cells HIV-1 protection, formazan growth assay, item CC(=O)NS(=O)(=O)c1ccc(NC(=O)c2ccccc2SC(C)=O)cc1 .
3.95

# assay system CEM cells HIV-1 protection, formazan growth assay: give pIC50 of N#C/C(=C\n1ccc(=O)[nH]c1=S)c1nc2ccccc2s1
< 3.70

Lab note: CEM cells HIV-1 protection, formazan growth assay assay, enter pIC50 for CC(C)OCC(O)COc1cc(=O)oc2ccccc12 (stereo not given) here
< 3.70

---

Catalogue of molecules with associated pEC50
Test system: CEM cells HIV-1 protection, formazan growth assay
Assay: NCI AIDS Antiviral Assay
pEC50: −log10 of the molar value.

MOLECULE	pEC50
Nc1ncnc2c1ncn2C1CCC(CP(=O)(O)O)C1 (stereo not drawn)	< 3.70
O=C(O)c1c(Cl)c(Cl)c(Cl)c(Cl)c1-c1c2ccc(=O)c(O)c-2oc2c(O)c(O)ccc12	< 4.08
CC(C)(C)[Si](C)(C)OC[C@@H](NC(=O)OCc1ccccc1)C(=O)O	< 3.70
CC(C)(O)c1cc2nc3ccccc3nc2n1CCO	< 3.70
CC(=O)[O-].Cc1ccnc(NS(=O)(=O)c2ccc(N=Cc3ccccc3[O-])cc2)n1.Cc1ccnc(NS(=O)(=O)c2ccc(N=Cc3ccccc3[O-])cc2)n1.[Co+2].[H+]	< 3.70
COc1c(O)c2c(=O)cc(OC)c3c4c(OC)cc(=O)c5c(O)c(OC)c6c(c(c1CC(C)(O)C6C(C)=O)c23)c54 (stereo not drawn)	< 4.88

Look up and state reported pEC50 for N#COc1ccc(Oc2ccc(OC#N)cc2)cc1
< 3.85

Kindly indicate its recorded pEC50. Item: CCOC(=O)c1c[nH]c(C(=O)OCC)c1-c1cccn1-c1ccccc1
< 3.70

---

System: CEM cells HIV-1 protection, formazan growth assay
Test: NCI AIDS Antiviral Assay
pEC50: −log10 of the molar value. Where a SMILES comes first, the peptide text is derived from it. Bridges are numbered along the chain shown (N, C = ends). [ ]: non-standard residue; d: D form. Orn = NCCC[CH](N)C(=O)O
// values below are reported pEC50

// worked examples, pEC50 included
MOLECULE	TARGET UNDER TEST	pEC50
COc1cc2nc(CC(O)c3nc4cc(OC)c(OC)cc4[nH]3)[nH]c2cc1OC (stereo unspecified)	CEM cells HIV-1 protection, formazan growth assay	< 3.70
COc1ccc(/C=C2\CCC(C)C3=C(c4ccc(OC)c(OC)c4)C(C#N)=C(N)OC32)cc1OC (stereo unspecified)	CEM cells HIV-1 protection, formazan growth assay	< 3.70
CCOP(=O)(OCC)/C(C#N)=C/c1cccc(Cl)c1	CEM cells HIV-1 protection, formazan growth assay	< 3.65
N#CC(C(N)=O)C(CC(=O)c1ccccc1)c1ccccc1 (stereo unspecified)	CEM cells HIV-1 protection, formazan growth assay	< 3.70
NC(=O)C1CCCNC(=O)CC(NC(=O)C(N)Cc2ccc(O)cc2)C(=O)NC(Cc2ccccc2)C(=O)N1 (stereo unspecified) (H-YDF[Orn]-NH2; lactam 2-4; configuration not given here)	CEM cells HIV-1 protection, formazan growth assay	< 4.00
Nc1nc(SSc2nc(N)nc3c2ncn3C2OC(CO)C(O)C2O)c2ncn(C3OC(CO)C(O)C3O)c2n1 (stereo unspecified)	CEM cells HIV-1 protection, formazan growth assay	< 4.70

For CEM cells HIV-1 protection, formazan growth assay, give pEC50 of the listed molecule: COc1cc(C[C@H]2C(=O)OC[C@@H]2C(=O)c2ccc(OC(C)C)c(O)c2)cc(OC)c1O
< 5.70

Quote CEM cells HIV-1 protection, formazan growth assay pEC50 for entry CCOC(=O)c1cc(I)c(-c2cc(C)no2)n1C .
< 3.70

---

Test system: CEM cells HIV-1 protection, formazan growth assay
Assay: NCI AIDS Antiviral Assay
Settings: measured here: growth of uninfected CEM cells
Below, each of the compounds is paired with its reported IC50 value.

Take a look at these entries with their results.
COMPOUND	IC50
CCCCCC1C2C(=O)NC(=O)C1C(=O)NC2=O (centres undefined)	> 1000 µM
COc1ccc2oc(=O)c(CC=C(C)C)c(O)c2c1C	> 100 µM
O=C1COC(c2ccccc2O)=NN1CCN1CCOCC1	> 105 µM
O=c1nc(NC2CCCCO2)ccn1CCO (centres undefined)	> 1050 µM
N#Cc1cc2c(n(C3OC(CO)C(O)C(O)C3O)c1=S)CCC2 (centres undefined)	> 200 µM

Give IC50 for the following compound: O=C(O)c1nc(-c2ccccc2)ncc1-c1nnnn1-c1ccccc1
> 200 µM

Note down IC50 recorded for O=c1[nH]c(Nc2cccc(Br)c2)nc2nc[nH]c12
> 100 µM

Retrieve IC50 measured for CC1(C)COC(CCCCCNC2=NCCCCC2)=N1 and print it.
> 200 µM

Fill in reported IC50 for this entry: CCN(CC)CCN(C(=O)c1ccc(F)cc1)c1ccccc1N
> 200 µM
